Target: IDH1 R132C (Homo sapiens, UniProt O75874, R132C)
Sequence (O75874 whole entry R132C): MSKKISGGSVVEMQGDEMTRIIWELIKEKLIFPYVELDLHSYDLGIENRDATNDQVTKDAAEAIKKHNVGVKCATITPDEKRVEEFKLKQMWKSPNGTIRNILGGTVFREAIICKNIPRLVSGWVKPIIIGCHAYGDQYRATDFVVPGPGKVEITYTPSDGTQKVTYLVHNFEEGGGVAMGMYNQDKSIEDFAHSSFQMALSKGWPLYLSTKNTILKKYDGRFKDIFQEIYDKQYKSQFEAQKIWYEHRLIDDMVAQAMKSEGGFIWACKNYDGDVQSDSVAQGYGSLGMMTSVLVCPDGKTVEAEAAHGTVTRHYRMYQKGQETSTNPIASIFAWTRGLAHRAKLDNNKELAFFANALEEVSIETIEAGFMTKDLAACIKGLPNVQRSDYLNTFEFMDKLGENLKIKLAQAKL
Experiment: IDH1 R132C enzymatic assay (NADPH depletion coupled to diaphorase/resazurin)
Type: biochemical
Conditions: IDH1 R132C enzymatic inhibition, IC50 class
assay.metric: IC50

Prompt: Report the value of IC50 obtained on IDH1 R132C (Homo sapiens, UniProt O75874, R132C) for CCc1cccc(CC)c1-n1c(CC(C)C)c(CO)cc(-c2nc(-c3ccc(Cl)cc3)cs2)c1=O .
Completion: 300 to 1000 nM

Prompt: Report the value of IC50 obtained on IDH1 R132C (Homo sapiens, UniProt O75874, R132C) for O=C1CCCc2c1cc(-c1nc(-c3ccc(Cl)cc3)cs1)c(=O)n2-c1ccccn1 .
Completion: > 20000 nM

Prompt: Report the value of IC50 obtained on IDH1 R132C (Homo sapiens, UniProt O75874, R132C) for CCc1cccc(CC)c1-n1c(C=C(C)C)c(C(=O)N2CCNCC2)cc(-c2nc(-c3ccc(C4CC4)cc3)cs2)c1=O .
Completion: < 300 nM

Prompt: Report the value of IC50 obtained on IDH1 R132C (Homo sapiens, UniProt O75874, R132C) for CCc1cccc(CC)c1-n1c(C)c(C(=O)N2CCCCC2)cc(-c2nc(-c3ccc(Cl)cc3)cs2)c1=O .
Completion: 1000 to 5000 nM

Prompt: Report the value of IC50 obtained on IDH1 R132C (Homo sapiens, UniProt O75874, R132C) for CCc1cccc(CC)c1-n1c(CC(C)C)c(C(=O)N2CCNCC2(C)C)cc(-c2nc(-c3ccc(Cl)cc3)cs2)c1=O .
Completion: < 300 nM

Prompt: Report the value of IC50 obtained on IDH1 R132C (Homo sapiens, UniProt O75874, R132C) for CCc1cccc(CC)c1-n1c2c(cc(-c3nc(-c4ccc(C)cn4)c(C)s3)c1=O)C(=O)CC(C)(C)C2 .
Completion: 1000 to 5000 nM

Prompt: Report the value of IC50 obtained on IDH1 R132C (Homo sapiens, UniProt O75874, R132C) for CCc1cccc(CC)c1-n1c2c(cc(-c3nc(-c4ccccc4OC)cs3)c1=O)C(=O)CC(C)(C)C2 .
Completion: 1000 to 5000 nM

Prompt: Report the value of IC50 obtained on IDH1 R132C (Homo sapiens, UniProt O75874, R132C) for COc1ccc(OC)c(-n2c3c(cc(-c4c[nH]c(-c5ccccc5)n4)c2=O)C(=O)CC(C)(C)C3)c1 .
Completion: 1000 to 5000 nM

Prompt: Report the value of IC50 obtained on IDH1 R132C (Homo sapiens, UniProt O75874, R132C) for CCc1cccc(CC)c1-n1c(CC(C)C)c(C(=O)N2CC(C(=O)OC)NCC2C)cc(-c2nc(-c3ccc(Cl)cc3)cs2)c1=O (centres unmarked) .
Completion: 300 to 1000 nM

Prompt: Report the value of IC50 obtained on IDH1 R132C (Homo sapiens, UniProt O75874, R132C) for CCc1cccc(CC)c1-n1c(C)c(C(=O)NCCNC)cc(-c2nc(-c3ccc(Cl)cc3)cs2)c1=O .
Completion: < 300 nM

Prompt: Report the value of IC50 obtained on IDH1 R132C (Homo sapiens, UniProt O75874, R132C) for COc1ccc(OC)c(-n2c3c(cc(-c4nc5cc(Cl)ccc5s4)c2=O)C(=O)CC(C)(C)C3)c1 .
Completion: 300 to 1000 nM

Prompt: Report the value of IC50 obtained on IDH1 R132C (Homo sapiens, UniProt O75874, R132C) for CCc1cccc(CC)c1-n1c2c(cc(-c3nc(-c4cccc(C(F)(F)F)c4)cs3)c1=O)C(=O)CC(C)(C)C2 .
Completion: > 20000 nM

Prompt: Report the value of IC50 obtained on IDH1 R132C (Homo sapiens, UniProt O75874, R132C) for CCc1cccc(CC)c1-n1c(C)c(C(=O)NC2CCC(O)CC2)cc(-c2nc(-c3ccc(Cl)cc3)cs2)c1=O (centres unmarked) .
Completion: 1000 to 5000 nM

Prompt: Report the value of IC50 obtained on IDH1 R132C (Homo sapiens, UniProt O75874, R132C) for COc1ccc(N)cc1-n1c2c(cc(-c3nc(-c4ccc(Cl)cc4)cs3)c1=O)C(=O)CC(C)(C)C2 .
Completion: 300 to 1000 nM

###

Target: IDH1 R132H (Homo sapiens, UniProt O75874, R132H)
Sequence (O75874 whole entry R132H): as the sequence (O75874 whole entry R132C) above, with C132H counted along it
Assay: IDH1 R132H enzymatic assay (NADPH depletion coupled to diaphorase/resazurin)
Format: biochemical
Conditions: IDH1 R132H enzymatic inhibition, IC50 class
assay.metric: IC50

Prompt: Note down IC50 recorded for CCc1cccc(CC)c1-n1c2c(cc(-c3nc(-c4cccnc4)cs3)c1=O)C(=O)CC(C)(C)C2 [Compound 119]
Completion: 5 to 20 µM

Prompt: Note down IC50 recorded for CC1(C)CC(=O)c2cc(-c3nc(-c4ccc(Cl)cc4)cs3)c(=O)n(-c3ccccc3O)c2C1 [Compound 199]
Completion: 5 to 20 µM

Prompt: Note down IC50 recorded for CCc1cccc(CC)c1-n1c(CC(C)C)c(C(=O)NC)cc(-c2nc(-c3ccc(Cl)cc3)cs2)c1=O [Compound 33]
Completion: 0.3 to 1 µM

Prompt: Note down IC50 recorded for COc1ccc(OC)c(-n2c3c(cc(C(=O)NCc4ccc(Cl)cc4)c2=O)C(=O)CC(C)(C)C3)c1 [Compound 93]
Completion: 5 to 20 µM

Prompt: Note down IC50 recorded for CCc1cccc(CC)c1-n1c(CC(C)C)c(C(=O)N2CCNCC2)cc(-c2coc(-c3ccc(Cl)cc3)n2)c1=O [Compound 643]
Completion: 0.3 to 1 µM

Prompt: Note down IC50 recorded for COc1ccc(OC)c(-n2c3c(cc(-c4nc(C)cs4)c2=O)C(=O)CC(C)(C)C3)c1 [Compound 124]
Completion: > 20 µM

Prompt: Note down IC50 recorded for CCc1cccc(CC)c1-n1c(C)c(C(=O)NC)cc(-c2nc(-c3ccc(Cl)cc3)cs2)c1=O [Compound 108]
Completion: 1 to 5 µM

###

Molecular target: IDH1 R132C (Homo sapiens, UniProt O75874, R132C)
Assay: IDH1 R132C enzymatic assay (NADPH depletion coupled to diaphorase/resazurin)
Assay type: biochemical
Conditions: IDH1 R132C enzymatic inhibition, IC50 class
Assign IC50 to each entry below.

Prompt: Report the value of IC50 obtained on IDH1 R132C (Homo sapiens, UniProt O75874, R132C) for CCc1cccc(CC)c1-n1c2c(cc(-c3nc(-c4cnc(C)nc4)c(C)s3)c1=O)C(=O)CC(C)(C)C2 [Compound 161] .
Completion: 1 to 5 µM

Prompt: Report the value of IC50 obtained on IDH1 R132C (Homo sapiens, UniProt O75874, R132C) for COc1ccc([N+](=O)[O-])cc1-n1c2c(cc(-c3nc(-c4ccc(Cl)cc4)cs3)c1=O)C(=O)CC(C)(C)C2 [Compound 128] .
Completion: 1 to 5 µM

Prompt: Report the value of IC50 obtained on IDH1 R132C (Homo sapiens, UniProt O75874, R132C) for CCc1cccc(CC)c1-n1c(C=C(C)C)c(C(=O)N2CCNCC2)cc(-c2nn(-c3ccc(Cl)cc3)cc2Cl)c1=O [Compound 345] .
Completion: 1 to 5 µM

Prompt: Report the value of IC50 obtained on IDH1 R132C (Homo sapiens, UniProt O75874, R132C) for CCc1cccc(CC)c1-n1c(C)c(C(=O)NC2CCCCC2O)cc(-c2nc(-c3ccc(Cl)cc3)cs2)c1=O (stereo not drawn) [Compound 270] .
Completion: 1 to 5 µM

Prompt: Report the value of IC50 obtained on IDH1 R132C (Homo sapiens, UniProt O75874, R132C) for CCc1cccc(CC)c1-n1c(C)c(C(=O)N2CC(O)C2)cc(-c2nc(-c3ccc(Cl)cc3)cs2)c1=O [Compound 242] .
Completion: 1 to 5 µM

Prompt: Report the value of IC50 obtained on IDH1 R132C (Homo sapiens, UniProt O75874, R132C) for CCc1cccc(CC)c1-n1c(CC(C)C)c(C(=O)N2CCNCC2)cc(-c2nc(-c3ccc(CN4CCOCC4)cc3)c(C)s2)c1=O [Compound 238] .
Completion: 5 to 20 µM

Prompt: Report the value of IC50 obtained on IDH1 R132C (Homo sapiens, UniProt O75874, R132C) for CCc1cccc(CC)c1-n1c(C(C)C)c(C(=O)N2CCNC(C(=O)O)C2)cc(-c2nc(-c3ccc(Cl)cc3)cs2)c1=O (stereo not drawn) [Compound 88] .
Completion: < 0.3 µM

Prompt: Report the value of IC50 obtained on IDH1 R132C (Homo sapiens, UniProt O75874, R132C) for CCc1cccc(CC)c1-n1c(CC(C)C)c(C(=O)N2CCNCC2)cc(-c2nc(-c3ccc(C#N)cc3)c(C)s2)c1=O [Compound 235] .
Completion: < 0.3 µM

Prompt: Report the value of IC50 obtained on IDH1 R132C (Homo sapiens, UniProt O75874, R132C) for CCc1cccc(CC)c1-n1c(C)c(C(=O)N2CCCNCC2)cc(-c2nc(-c3ccc(Cl)cc3)cs2)c1=O [Compound 66] .
Completion: 0.3 to 1 µM

Prompt: Report the value of IC50 obtained on IDH1 R132C (Homo sapiens, UniProt O75874, R132C) for CCc1cccc(CC)c1-n1c(C(C)C)c(C(=O)N2CCNC(=O)C2)cc(-c2nc(-c3ccc(Cl)cc3)cs2)c1=O [Compound 168] .
Completion: 0.3 to 1 µM

Prompt: Report the value of IC50 obtained on IDH1 R132C (Homo sapiens, UniProt O75874, R132C) for CC1(C)CC(=O)c2cc(-c3nc(-c4ccc(Cl)cc4)cs3)c(=O)n(-c3ccccc3)c2C1 [Compound 150] .
Completion: 5 to 20 µM

Prompt: Report the value of IC50 obtained on IDH1 R132C (Homo sapiens, UniProt O75874, R132C) for CCc1cccc(CC)c1-n1c(CCC(F)(F)F)c(C(=O)N2CCNCC2)cc(-c2nc(-c3ccc(Cl)cc3)cs2)c1=O [Compound 373] .
Completion: 0.3 to 1 µM

Prompt: Report the value of IC50 obtained on IDH1 R132C (Homo sapiens, UniProt O75874, R132C) for CCc1cccc(CC)c1-n1c(C(C)C)c(C(=O)N2CCNC[C@H]2C)cc(-c2nc(-c3ccc(Cl)cc3)cs2)c1=O [Compound 37] .
Completion: 0.3 to 1 µM

Prompt: Report the value of IC50 obtained on IDH1 R132C (Homo sapiens, UniProt O75874, R132C) for CCc1cccc(CC)c1-n1c(C)c(C(=O)N(C)CCO)cc(-c2nc(-c3ccc(Cl)cc3)cs2)c1=O [Compound 308] .
Completion: 1 to 5 µM

Prompt: Report the value of IC50 obtained on IDH1 R132C (Homo sapiens, UniProt O75874, R132C) for CCc1cccc(CC)c1-n1c(C)c(C(=O)N2CCCC(N)C2)cc(-c2nc(-c3ccc(Cl)cc3)cs2)c1=O (stereo not drawn) [Compound 223] .
Completion: < 0.3 µM

Prompt: Report the value of IC50 obtained on IDH1 R132C (Homo sapiens, UniProt O75874, R132C) for CCc1cccc(CC)c1-n1c(C)c(C(=O)N2CCN[C@@H](C(=O)OC)C2)cc(-c2nc(-c3ccc(Cl)cc3)cs2)c1=O [Compound 83] .
Completion: 0.3 to 1 µM

Prompt: Report the value of IC50 obtained on IDH1 R132C (Homo sapiens, UniProt O75874, R132C) for CC1(C)CC(=O)c2cc(-c3nc(-c4ccc(Cl)cc4)cs3)c(=O)n(-c3ccccc3Oc3ccccc3)c2C1 [Compound 49] .
Completion: < 0.3 µM

Prompt: Report the value of IC50 obtained on IDH1 R132C (Homo sapiens, UniProt O75874, R132C) for CCc1cccc(CC)c1-n1c(C)c(C(=O)N[C@H](C)CO)cc(-c2nc(-c3ccc(Cl)cc3)cs2)c1=O [Compound 176] .
Completion: 1 to 5 µM

Prompt: Report the value of IC50 obtained on IDH1 R132C (Homo sapiens, UniProt O75874, R132C) for COc1ccc(OC)c(-n2c3c(cc(-c4nc(-c5ccc(Cl)cc5)no4)c2=O)C(=O)CC(C)(C)C3)c1 [Compound 306] .
Completion: 5 to 20 µM

Prompt: Report the value of IC50 obtained on IDH1 R132C (Homo sapiens, UniProt O75874, R132C) for CCc1cccc(CC)c1-n1c(CC(C)C)c(C(=O)N2CCNCC2)cc(-c2nc(-c3ccc(Cl)c(OC)c3)c(C)s2)c1=O [Compound 633] .
Completion: 0.3 to 1 µM

Prompt: Report the value of IC50 obtained on IDH1 R132C (Homo sapiens, UniProt O75874, R132C) for CCc1cccc(CC)c1-n1c(C=C(C)C)c(C(=O)N2CCNC(C(N)=O)C2)cc(-c2ccn(-c3ccc(Cl)cc3)n2)c1=O (stereo not drawn) [Compound 653] .
Completion: < 0.3 µM

Prompt: Report the value of IC50 obtained on IDH1 R132C (Homo sapiens, UniProt O75874, R132C) for COc1cccc(C)c1-n1c2c(cc(-c3nc(-c4ccc(Cl)cc4)cs3)c1=O)C(=O)CC(C)(C)C2 [Compound 52] .
Completion: 1 to 5 µM

Prompt: Report the value of IC50 obtained on IDH1 R132C (Homo sapiens, UniProt O75874, R132C) for O=C1CCCc2c1cc(-c1nc(-c3ccc(Cl)cc3)cs1)c(=O)n2-c1ccccc1CN1CCOCC1 [Compound 339] .
Completion: 1 to 5 µM

Prompt: Report the value of IC50 obtained on IDH1 R132C (Homo sapiens, UniProt O75874, R132C) for CCc1cccc(CC)c1-n1c(CC(C)C)c(C(=O)NC[C@H](NC(C)=O)C(=O)O)cc(-c2nc(-c3ccc(Cl)cc3)cs2)c1=O [Compound 140] .
Completion: 5 to 20 µM

Prompt: Report the value of IC50 obtained on IDH1 R132C (Homo sapiens, UniProt O75874, R132C) for CCc1cccc(CC)c1-n1c(C=C(C)C)c(C(=O)N2CCNC(C#N)C2)cc(-c2nc(-c3ccc(Cl)cc3)cs2)c1=O (stereo not drawn) [Compound 657] .
Completion: < 0.3 µM

Prompt: Report the value of IC50 obtained on IDH1 R132C (Homo sapiens, UniProt O75874, R132C) for CCc1cccc(CC)c1-n1c(C)c(C(=O)N2CCCC(C(=O)O)C2)cc(-c2nc(-c3ccc(Cl)cc3)cs2)c1=O (stereo not drawn) [Compound 259] .
Completion: 5 to 20 µM

Prompt: Report the value of IC50 obtained on IDH1 R132C (Homo sapiens, UniProt O75874, R132C) for CCSc1ccccc1-n1c2c(cc(-c3nc(-c4ccc(Cl)cc4)cs3)c1=O)C(=O)CC(C)(C)C2 [Compound 134] .
Completion: 0.3 to 1 µM
